Test system: KB-A1
assayProtocol: Flow cytometry: intracellular accumulation of ADR, line KB-A1
Assay type: cell-based, Human
particulars: ADR 50 μM, 5 hours, compound 5 μM
Kind request: treat 20 as inclusive, so increase in the ADR fluorescence (VAR-MEAN) at 20 or higher is Criterion met, anything lower is Criterion not met.

Could you please find out whether CCOC(=O)C1=C(COCCOCCNCc2nccc3ccccc23)NC(C)=C(C(=O)OC)C1c1cccc(Cl)c1Cl (stereo not shown) has increase in the ADR fluorescence (VAR-MEAN) that meets 20 or exceeds it?
Criterion met

Would you say CCOC(=O)C1=C(COCCOCCNCc2ccncc2)NC(C)=C(C(=O)OC)C1c1cccc(Cl)c1Cl (stereo not shown) shows increase in the ADR fluorescence (VAR-MEAN) at minimum 20?
Criterion met

Determine whether measured increase in the ADR fluorescence (VAR-MEAN) meets or exceeds 20 for CCOC(=O)C1=C(COCCOCCNCc2ccc(C#N)cc2)NC(C)=C(C(=O)OC)C1c1cccc(Cl)c1Cl (stereo not shown)
Criterion met

# check: increase in the ADR fluorescence (VAR-MEAN) of CCOC(=O)C1=C(COCCOCCNCc2ccc(F)cc2)NC(C)=C(C(=O)OC)C1c1cccc(Cl)c1Cl (stereo not shown) is greater than or equal to 20
Criterion not met

For this compound, is measured increase in the ADR fluorescence (VAR-MEAN) 20 or higher? CCOC(=O)C1=C(COCCN)NC(C)=C(C(=O)OC)C1c1ccccc1Cl (stereo not shown) [AMLODIPINE, amlodipine, reference compound]
Criterion not met

Tell me whether increase in the ADR fluorescence (VAR-MEAN) is at least 20 here: CCOC(=O)C1=C(COCCOCCNCc2ccc([N+](=O)[O-])cc2)NC(C)=C(C(=O)OC)C1c1cccc(Cl)c1Cl (stereo not shown)
Criterion met

Is increase in the ADR fluorescence (VAR-MEAN) for CCOC(=O)C1=C(COCCOCCNCc2cccc3ccccc23)NC(C)=C(C(=O)OC)C1c1cccc(Cl)c1Cl (stereo not shown) at or above 20?
Criterion met

Has COC(=O)C1=C(C)NC(C)=C(C(=O)OC)C1c1ccccc1[N+](=O)[O-] [NIFEDIPINE, nifedipine, reference compound] a recorded increase in the ADR fluorescence (VAR-MEAN) greater than or equal to 20?
Criterion not met

Does increase in the ADR fluorescence (VAR-MEAN) meet or surpass 20 for COc1ccc(CCN(C)CCCC(C#N)(c2ccc(OC)c(OC)c2)C(C)C)cc1OC (stereo not shown) [verapamil, reference compound] ?
Criterion not met

* * *

Please go through the items and note down their reversion factor (RF).
System: DC-3F/AD
assayProtocol: Cytotoxicity: reversal of resistance to actinomycin D (reversion factor), line DC-3F/AD
Format: cell-based, Chinese hamster
particulars: compound 1 μM

Return reversion factor (RF) for the following molecule: COc1ccc(CCN(C)CCCC(C#N)(c2ccc(OC)c(OC)c2)C(C)C)cc1OC (stereo not shown) [verapamil, reference compound]
1.0

Please supply the value of reported reversion factor (RF) for the item CCOC(=O)C1=C(COCCOCCNCc2ccccc2F)NC(C)=C(C(=O)OC)C1c1cccc(Cl)c1Cl (stereo not shown)
9.6

Input CCOC(=O)C1=C(COCCOCCNCc2cccnc2)NC(C)=C(C(=O)OC)C1c1cccc(Cl)c1Cl (stereo not shown) , output reported reversion factor (RF).
3.7

Find the measured reversion factor (RF) of CCOC(=O)C1=C(COCCOCCNCc2ccc(F)cc2)NC(C)=C(C(=O)OC)C1c1cccc(Cl)c1Cl (stereo not shown) and report it.
23.0

Read off the recorded reversion factor (RF) for CCOC(=O)C1=C(COCCOCCNC2c3ccccc3CCc3ccccc32)NC(C)=C(C(=O)OC)C1c1cccc(Cl)c1Cl (stereo not shown)
1.4

Output measured reversion factor (RF) for this item: CCOC(=O)C1=C(COCCOCCNCc2ccc(SC)cc2)NC(C)=C(C(=O)OC)C1c1cccc(Cl)c1Cl (stereo not shown)
1.2

Fill in reversion factor (RF) for record CCOC(=O)C1=C(COCCOCCNCc2cccc3ccccc23)NC(C)=C(C(=O)OC)C1c1cccc(Cl)c1Cl (stereo not shown)
1.0

* * *

Tested on: DC-3F/AD
assayProtocol: Cytotoxicity: reversal of resistance to actinomycin D (reversion factor), line DC-3F/AD
Format: cell-based, Chinese hamster
particulars: compound 5 μM
reportedProperty: reversion factor (RF)

Input CCOC(=O)C1=C(COCCOCCNCc2ccccc2F)NC(C)=C(C(=O)OC)C1c1cccc(Cl)c1Cl (stereo not drawn) [Example 6] , output reported reversion factor (RF).
4,340.9

Tell me measured reversion factor (RF) for CCOC(=O)C1=C(COCCOCCNCc2nccc3ccccc23)NC(C)=C(C(=O)OC)C1c1cccc(Cl)c1Cl (stereo not drawn) [Example 19] please.
1,701.7

Please give the documented reversion factor (RF) of CCOC(=O)C1=C(COCCOCCNCc2cccc3ccccc23)NC(C)=C(C(=O)OC)C1c1cccc(Cl)c1Cl (stereo not drawn) [Example 11]
2,442.4

Look up and state reported reversion factor (RF) for CCOC(=O)C1=C(COCCOCCNCc2ccc3ccccc3c2)NC(C)=C(C(=O)OC)C1c1cccc(Cl)c1Cl (stereo not drawn) [Example 12]
1,320.1

Identify measured reversion factor (RF) corresponding to CCOC(=O)C1=C(COCCOCCNCc2ccccn2)NC(C)=C(C(=O)OC)C1c1cccc(Cl)c1Cl (stereo not drawn) [Example 16]
8,248.4

Note down reversion factor (RF) recorded for CCOC(=O)C1=C(COCCOCCNCc2ccc([N+](=O)[O-])cc2)NC(C)=C(C(=O)OC)C1c1cccc(Cl)c1Cl (stereo not drawn) [Example 1]
2,613.2

* * *

I'd appreciate it if you could supply pIC50 values for the items below.
testedTarget: calcium channel (Sus scrofa, UniProt A0A8W4FNC0)
Construct: pig aorta smooth muscle microsome preparations
Sequence (A0A8W4FNC0 1-2067): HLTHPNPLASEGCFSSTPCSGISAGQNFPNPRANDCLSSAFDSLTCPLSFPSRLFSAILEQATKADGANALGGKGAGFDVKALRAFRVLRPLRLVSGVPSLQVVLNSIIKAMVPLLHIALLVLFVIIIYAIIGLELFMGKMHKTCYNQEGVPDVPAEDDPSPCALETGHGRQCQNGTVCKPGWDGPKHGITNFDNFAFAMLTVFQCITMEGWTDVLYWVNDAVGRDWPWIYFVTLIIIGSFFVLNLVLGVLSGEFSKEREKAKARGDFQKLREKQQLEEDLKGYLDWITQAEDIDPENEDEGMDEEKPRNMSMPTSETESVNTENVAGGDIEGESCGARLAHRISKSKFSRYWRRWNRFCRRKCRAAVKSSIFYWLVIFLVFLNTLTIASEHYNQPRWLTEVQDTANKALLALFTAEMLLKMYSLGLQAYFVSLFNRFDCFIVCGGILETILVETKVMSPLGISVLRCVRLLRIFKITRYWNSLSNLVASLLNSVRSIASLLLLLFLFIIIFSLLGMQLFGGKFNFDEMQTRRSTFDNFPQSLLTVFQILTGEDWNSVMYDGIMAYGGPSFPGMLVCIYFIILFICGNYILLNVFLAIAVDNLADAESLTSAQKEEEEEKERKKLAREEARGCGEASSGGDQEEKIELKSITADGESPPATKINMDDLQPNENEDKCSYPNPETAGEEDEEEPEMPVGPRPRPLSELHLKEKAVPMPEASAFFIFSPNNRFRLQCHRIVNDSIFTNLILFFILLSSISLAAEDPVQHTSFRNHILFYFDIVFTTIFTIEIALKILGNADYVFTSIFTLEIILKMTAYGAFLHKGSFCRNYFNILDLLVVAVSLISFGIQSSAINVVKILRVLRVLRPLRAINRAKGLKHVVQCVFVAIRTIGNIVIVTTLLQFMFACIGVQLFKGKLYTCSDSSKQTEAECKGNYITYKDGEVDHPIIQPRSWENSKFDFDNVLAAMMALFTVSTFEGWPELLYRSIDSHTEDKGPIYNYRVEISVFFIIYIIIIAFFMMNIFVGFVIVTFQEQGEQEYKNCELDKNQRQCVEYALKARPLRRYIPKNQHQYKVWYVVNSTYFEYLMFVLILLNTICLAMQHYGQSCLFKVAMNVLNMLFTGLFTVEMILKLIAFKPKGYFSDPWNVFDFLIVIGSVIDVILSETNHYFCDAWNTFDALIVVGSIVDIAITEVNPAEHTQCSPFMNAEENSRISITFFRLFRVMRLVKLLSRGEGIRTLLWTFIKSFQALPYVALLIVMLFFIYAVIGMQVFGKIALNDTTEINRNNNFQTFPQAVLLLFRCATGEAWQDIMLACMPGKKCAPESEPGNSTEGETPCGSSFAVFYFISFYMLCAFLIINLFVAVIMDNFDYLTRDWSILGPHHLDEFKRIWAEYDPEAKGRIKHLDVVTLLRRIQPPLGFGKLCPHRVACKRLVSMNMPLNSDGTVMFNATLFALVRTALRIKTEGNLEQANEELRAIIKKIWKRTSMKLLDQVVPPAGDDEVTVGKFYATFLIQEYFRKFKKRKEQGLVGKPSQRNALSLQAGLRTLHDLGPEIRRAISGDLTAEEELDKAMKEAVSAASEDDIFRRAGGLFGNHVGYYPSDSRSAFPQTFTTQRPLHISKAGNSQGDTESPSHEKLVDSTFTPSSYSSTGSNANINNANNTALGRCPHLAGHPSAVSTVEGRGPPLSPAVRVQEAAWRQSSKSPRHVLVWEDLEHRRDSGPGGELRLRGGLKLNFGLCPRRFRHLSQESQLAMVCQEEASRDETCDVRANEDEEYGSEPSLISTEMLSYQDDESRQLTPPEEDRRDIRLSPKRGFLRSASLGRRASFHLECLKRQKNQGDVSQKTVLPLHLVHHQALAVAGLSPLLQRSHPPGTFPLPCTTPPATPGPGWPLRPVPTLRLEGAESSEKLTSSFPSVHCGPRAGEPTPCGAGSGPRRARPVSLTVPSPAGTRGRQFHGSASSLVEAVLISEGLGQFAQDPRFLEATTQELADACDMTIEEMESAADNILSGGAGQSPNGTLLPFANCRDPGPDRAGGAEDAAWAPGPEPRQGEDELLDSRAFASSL
assayProtocol: Affinity for the calcium channel labelled with [^3 ] PN 200110, aorta smooth muscle microsome preparations
particulars: pig aorta smooth muscle microsomes; means of three independent experiments
// pIC50: -log10(molar conc.)

Tell me pIC50 of CCOC(=O)C1=C(COCCOCCNCCc2ccccn2)NC(C)=C(C(=O)OC)C1c1cccc(Cl)c1Cl (single isomer, unassigned) when tested on calcium channel (Sus scrofa, UniProt A0A8W4FNC0).
5.68

Answer with pIC50 of CCOC(=O)C1=C(COCCOCCNCc2ccc([N+](=O)[O-])cc2)NC(C)=C(C(=O)OC)C1c1cccc(Cl)c1Cl (stereo not shown) measured for calcium channel (Sus scrofa, UniProt A0A8W4FNC0).
5.80

Tell me its pIC50 on calcium channel (Sus scrofa, UniProt A0A8W4FNC0): CCOC(=O)C1=C(COCCOCCNCc2ccc3ccccc3c2)NC(C)=C(C(=O)OC)C1c1cccc(Cl)c1Cl (stereo not shown)
5.89

Print calcium channel (Sus scrofa, UniProt A0A8W4FNC0) pIC50 for CCOC(=O)C1=C(COCCOCCNCc2cccnc2)NC(C)=C(C(=O)OC)C1c1cccc(Cl)c1Cl (stereo not shown) .
5.85

Enter pIC50 (test system calcium channel (Sus scrofa, UniProt A0A8W4FNC0)) for CCOC(=O)C1=C(COCCOCCNCc2c[nH]c3ccccc23)NC(C)=C(C(=O)OC)C1c1cccc(Cl)c1Cl (stereo not shown)
5.48

Specify pIC50 for CCOC(=O)C1=C(COCCOCCNCc2cnc3ccccc3c2)NC(C)=C(C(=O)OC)C1c1cccc(Cl)c1Cl (stereo not shown) , system calcium channel (Sus scrofa, UniProt A0A8W4FNC0).
5.70

For calcium channel (Sus scrofa, UniProt A0A8W4FNC0), give pIC50 of the listed molecule: CCOC(=O)C1=C(COCCOCCNCc2nccc3ccccc23)NC(C)=C(C(=O)OC)C1c1cccc(Cl)c1Cl (stereo not shown)
5.49

Please report pIC50 with calcium channel (Sus scrofa, UniProt A0A8W4FNC0) for item CCOC(=O)C1=C(COCCOCCNCc2ccsc2)NC(C)=C(C(=O)OC)C1c1cccc(Cl)c1Cl (stereo not shown) .
6.00

Given CCOC(=O)C1=C(COCCOCCNCc2ccccn2)NC(C)=C(C(=O)OC)C1c1cccc(Cl)c1Cl (stereo not shown) , report its pIC50 on calcium channel (Sus scrofa, UniProt A0A8W4FNC0).
5.80

Please indicate recorded pIC50 of CCOC(=O)C1=C(COCCOCCNCc2ccnc3ccccc23)NC(C)=C(C(=O)OC)C1c1cccc(Cl)c1Cl (stereo not shown) measured with calcium channel (Sus scrofa, UniProt A0A8W4FNC0).
5.96

* * *

Test system: KB-A1
assayProtocol: Cytotoxicity: reversal of resistance to adriamycin (reversion factor), line KB-A1
Format: cell-based, Human
particulars: compound 1 μM
Experimental: The parameter measured is the cytotoxicity of the antitumour drug, quantified in the absence and in the presence of the reversing compound. […] The compounds tested for their capacity to reverse the resistance are added at the same time as the cytotoxic agent. The cells are then incubated for 4 days.
reportedProperty: reversion factor (RF)
Reply with the value as a number alone.

State its reversion factor (RF): CCOC(=O)C1=C(COCCOCCNCc2cccs2)NC(C)=C(C(=O)OC)C1c1cccc(Cl)c1Cl (stereo not shown)
12.3

For the molecule CCOC(=O)C1=C(COCCOCCNCc2cccc([N+](=O)[O-])c2)NC(C)=C(C(=O)OC)C1c1cccc(Cl)c1Cl (stereo not shown) , give its measured reversion factor (RF) value.
2.2

Specify measured reversion factor (RF) for CCOC(=O)C1=C(COCCOCCNCc2ccc([N+](=O)[O-])cc2)NC(C)=C(C(=O)OC)C1c1cccc(Cl)c1Cl (stereo not shown) .
32.1

Please give the documented reversion factor (RF) of COc1ccc(CCN(C)CCCC(C#N)(c2ccc(OC)c(OC)c2)C(C)C)cc1OC (stereo not shown) [verapamil, reference compound]
4.6

Return reversion factor (RF) (reported value) for this molecule: CCOC(=O)C1=C(COCCOCCNCc2ccsc2)NC(C)=C(C(=O)OC)C1c1cccc(Cl)c1Cl (stereo not shown)
22.7

Hello, please tell me recorded reversion factor (RF) for this one: CCOC(=O)C1=C(COCCN)NC(C)=C(C(=O)OC)C1c1ccccc1Cl (stereo not shown) [AMLODIPINE, amlodipine, reference compound]
1.5

Supply measured reversion factor (RF) of CCOC(=O)C1=C(COCCOCCNCc2cccc(F)c2)NC(C)=C(C(=O)OC)C1c1cccc(Cl)c1Cl (stereo not shown) in your reply.
13.2
